Assay: JHH-DIPG-1 glioma cell viability, MIPE5.0 library, CellTiter-Glo luminescence, qHTS (AID 1347067);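 also: cells exposed to compound for 48 hours before readout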
Conditions: JHH-DIPG-1 glioma viability, CellTiter-Glo ATP luminescence
Results filed as inconclusive are left out. The source made the active and inactive calls. The limit is not given here; nearly all actives have AC50 up to about 26 µM.
Outcome codes: Yes (active), No (inactive)

COMPOUND | CAT
O=C([C@@H](Cc1cccc(C(F)(F)F)c1)NS(=O)(=O)c1cc(F)c2c(c1)CCNC2)N1CCCC1 | No
CC1COC2(CCN(c3nc(=O)c4cc(C(F)(F)F)cc([N+](=O)[O-])c4s3)CC2)O1 (centres undefined) | No
CC1(C)S[C@H]2[C@H](NC(=O)[C@@H](N)c3ccc(O)cc3)C(=O)N2[C@H]1C(=O)O | No
Nc1nc2cc(-c3ccc4ncc(C(=O)N5CCOCC5)n4c3)ccc2o1 | Yes
Cc1nnc(C(C)C)n1C1CC2CCC(C1)N2CC[C@H](NC(=O)C1CCC(F)(F)CC1)c1ccccc1 (some centres undefined) | No
Cn1c(-c2ccccc2C(F)(F)F)nnc1C12CCC(c3noc(C4CC(F)(F)C4)n3)(CC1)CC2 | No
CN1CCN(CCOc2cc(OC3CCOCC3)c3c(Nc4c(Cl)ccc5c4OCO5)ncnc3c2)CC1 | No
CN1C(N)=N[C@](C)(c2cc(NC(=O)c3ccc(F)cn3)ccc2F)CS1(=O)=O | No
CC(=O)NCC(=O)N1[C@@H]2CC[C@H]1c1ccc(Nc3ncc(C(F)(F)F)c(NC4CCC4)n3)cc12 | Yes

* * *

Test: viability loss in pontine glioma line – cell-based, SU-DIPG-IV, MIPE4.0, CellTiter-Glo, qHTS, dose response (AID 1347063);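 also: compound exposure lasted 48 hours before the viability readout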
Settings: CellTiter-Glo ATP luminescence
Records with an inconclusive call do not appear. Calls of active or inactive are those of the source. The limit is not given here; nearly all actives have AC50 up to about 30 µM.
Outcome codes: active, inactive

COMPOUND | CAT
CCN(CC)CCNC(=O)c1ccc2nc(-c3ccccc3)c(-c3ccc(CN4CCC(n5c(=O)[nH]c6ccccc65)CC4)cc3)nc2c1 | active
Cc1ccc(C(N)=O)cc1Nc1nccc(-c2cn(C(C)C)c3cnccc23)n1 | active
COc1ccc(C2(C#N)CCC(C(=O)O)CC2)cc1OC1CCCC1 (stereo not drawn) | inactive
Cc1cccc(-c2nn(C(=S)Nc3ccccc3)cc2-c2ccnc3ccccc23)n1 | inactive
COc1cc(C)c(Sc2cnc(NC(=O)c3ccc(CNC(C)C(C)C)cc3)s2)cc1C(=O)N1CCN(C(C)=O)CC1 (stereo not drawn) | active
CNC1CCC(N(Cc2cccc(-c3ccncc3)c2)C(=O)c2sc3ccccc3c2Cl)CC1 (stereo not drawn) | active
COc1cc2c(cc1OC)C1CC(=O)C(CC(C)C)CN1CC2 (stereo not drawn) | inactive
NC[C@@H]1O[C@H](O[C@H]2[C@@H](O)[C@H](O[C@@H]3[C@@H](O)[C@H](N)C[C@H](N)[C@H]3O[C@H]3O[C@H](CN)[C@@H](O)[C@H](O)[C@H]3N)O[C@@H]2CO)[C@H](N)[C@@H](O)[C@@H]1O | inactive
Cc1nc2c([nH]1)CCN(C(=O)c1ccc(NC(=O)c3ccccc3-c3ccccc3)cc1)c1ccccc1-2 | inactive
CNC(=O)c1ccccc1Nc1nc(Nc2ccc(N3CCOCC3)cc2OC)ncc1Cl | active
O=[N+]([O-])c1ccc(Nc2ccccc2-c2ccccc2)c2nonc12 | inactive
COc1ccc(OC)c(-c2nnc3ccc(-c4ccc(OC)c(O[C@@H]5CCOC5)c4)nn23)c1 | active
Cc1cn2cc(C(=O)N(C)CCO)cc(N[C@@H]3CCOc4cccc(C)c43)c2n1 | inactive
O=C(O)CCCCCC(=O)NN=C1CCCC1 | inactive
CC(C)(C)Cn1c(N)nc2ccc(-c3[nH]c(C(C)(C)C)nc3-c3ccc(F)cc3)nc21 | active
Cc1ccc(S(=O)(=O)Nc2cc(Cl)ccc2C(=O)Nc2nc(-c3ccccc3)cs2)cc1 | active
C=CC(=O)Nc1cccc(Oc2nc(Nc3ccc(N4CCN(C)CC4)cc3)ncc2Cl)c1 | active
COc1ccc(Nc2cc(-c3cnc(N)nc3)nc(N3CCOCC3)n2)cn1 | active
